Target: T1, ecMutS (Escherichia coli, UniProt P23909 1-853)
T1 sequence: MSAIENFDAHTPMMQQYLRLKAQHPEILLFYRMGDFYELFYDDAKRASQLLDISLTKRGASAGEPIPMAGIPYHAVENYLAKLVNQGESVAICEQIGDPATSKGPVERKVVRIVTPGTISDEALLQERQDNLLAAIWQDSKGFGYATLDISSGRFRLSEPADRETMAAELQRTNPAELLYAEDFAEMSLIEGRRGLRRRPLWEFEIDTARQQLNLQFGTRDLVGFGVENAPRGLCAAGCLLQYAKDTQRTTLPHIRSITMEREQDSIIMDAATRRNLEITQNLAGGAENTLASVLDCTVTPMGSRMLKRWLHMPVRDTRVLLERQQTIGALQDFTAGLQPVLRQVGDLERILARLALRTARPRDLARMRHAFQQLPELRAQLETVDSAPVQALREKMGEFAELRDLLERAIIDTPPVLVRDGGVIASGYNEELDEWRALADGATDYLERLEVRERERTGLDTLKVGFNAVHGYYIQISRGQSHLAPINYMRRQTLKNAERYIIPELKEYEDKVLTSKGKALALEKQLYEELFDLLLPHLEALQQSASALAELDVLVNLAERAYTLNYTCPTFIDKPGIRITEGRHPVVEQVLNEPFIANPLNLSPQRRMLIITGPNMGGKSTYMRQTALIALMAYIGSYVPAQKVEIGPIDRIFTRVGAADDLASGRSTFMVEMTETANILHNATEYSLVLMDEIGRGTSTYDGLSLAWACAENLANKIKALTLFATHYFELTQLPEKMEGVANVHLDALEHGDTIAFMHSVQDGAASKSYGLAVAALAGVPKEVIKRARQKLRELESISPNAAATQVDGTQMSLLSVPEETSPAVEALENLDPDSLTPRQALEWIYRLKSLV
Test: competition; vs ds76-G/T-3', 65 nM ecMutS dimer; ecMutS: 20 mM HEPES-KOH pH 7.9, 5 mM MgCl2, 120 mM KCl, 0.5 mg/mL BSA, 1 mM ADP, 37 C 15 min, 5 nM DNA; ecMutL/ngMutL: 20 mM HEPES pH 8.0, 100 mM KCl, 0.5 mg/mL BSA, 1 mM DTT, on ice 10 min, 20 nM DNA; gels in TAE at 4 C
Details: protein: recombinant; tags: N-terminal His6; chain copies: 2; label: none; three stacked parallel intramolecular G4s
Measurement Type: IC50 (nM)
Your answer should be a plain number; it is taken to be in nM.

Problem: State, in one line, measured IC50 of G228A (unlabeled) (structured_DNA) DNA: GCCGCGGAAAGGAAGGGGAGGGGCTGGGAGGGCCCGGAAGGGGCTGGGCCGGGGACCCGGGAGGGGTCGGGACGGGGCGGGGTCCGCGCGGAGGAG
Solution: 35

Problem: State, in one line, measured IC50 of G250A (unlabeled) (structured_DNA) DNA: GCCGCGGAAAGGAAGGGGAGGGGCTGGGAGGGCCCGGAGGGGGCTGGGCCGGGGACCCGGAAGGGGTCGGGACGGGGCGGGGTCCGCGCGGAGGAG
Solution: 40

Problem: State, in one line, measured IC50 of G242,243A (unlabeled) (structured_DNA) DNA: GCCGCGGAAAGGAAGGGGAGGGGCTGGGAGGGCCCGGAGGGGGCTGGGCCGGAAACCCGGGAGGGGTCGGGACGGGGCGGGGTCCGCGCGGAGGAG
Solution: 28

Problem: State, in one line, measured IC50 of WT (structured_DNA) DNA: GCCGCGGAAAGGAAGGGGAGGGGCTGGGAGGGCCCGGAGGGGGCTGGGCCGGGGACCCGGGAGGGGTCGGGACGGGGCGGGGTCCGCGCGGAGGAG
Solution: 32
